assay: yeast display, Sf9 membrane polyspecificity reagent, FACS + sequencing; frameworks hold sequencing errors
QUANTITY_MEASURED: polyreactivity (PSR sort gate)

SEQ_TEXT	QUANTITY_MEASURED	RESULT
QVQLVESRGGLVQAGGSLRLSCAASGSTFYRYAMAWYRQAPGKERELVARINTGGSTSYADSVKGRFTISRDNAKNTVYLQMNILKPEDTAVYYCAASSRYAVFGRYYYCGQGTQVTVSS	polyreactivity (PSR sort gate)	high polyreactivity
QVQLVESGGGLVQAGGSLRLSCAASGYTFYVYAMGWYRQAPGKERELVAAISSDTGRTYYADSVKGRFTISRDNAKNTVYLQMNSLKPEDTAVYYCAKRRVYGGYDYWGQGTQVTVSS	polyreactivity (PSR sort gate)	low polyreactivity
QVQLVESGGGLVQAGGSLRLTCAASGSTLIDNVMGWYRQAPGKERELVASITSSDGTTYADSVKGRFTISRDNAKNSVYLQMNSLKPEDTAVYYFAARPWYGTYNYWGEGTQVTVSS	polyreactivity (PSR sort gate)	low polyreactivity
QVQLVESGGGLVQAGGSLRLSCAASGSIFHPYAMGWYRQAPGKERELVAAISGGGTNTYYADSVKGRFTISRDNAKNTVYLQMNSLKPEDTAVYYCAAERYYWGQGTQVTVSS	polyreactivity (PSR sort gate)	high polyreactivity
QVQLVESGGGLVQAGGSLRLSCAASGSIFNSYAMGWYRQAPGKERELVAAIRWSGGRTYYADSVKGRFTISRDNAKNTVYLQMNSLKPEDTAVYYCNVVSPGRVNYWGQGTQVTVSS	polyreactivity (PSR sort gate)	high polyreactivity
QVQLVESGGGLVPAGGSLRLSCAASGSIFGFYAMGWYRQSPGKERELVAGISYGDSSTYYADSVKGSFTISRDNAKNTVYLQMNSLKPEDTAVYYCAAGHRQKYNWGRYDYWGQGTQVTVSS	polyreactivity (PSR sort gate)	low polyreactivity
QVQLVESGGGLVQAGGSLRLSCADSGFISDWYAMGWYRQAPGKERELVATIDWIGGSTYADSVKGRFTISRDNAKNTVYLQMNSMKPEDTAVYYCNAYAFDSVREEDYWGQGTQVTVSS	polyreactivity (PSR sort gate)	low polyreactivity
QVQLQESGGGLAQAGGSQRLSCAASGTIFAADSMGWYRQAPGKERELVAGITSGANTYYADSVKGRYTISHDNAKKTVYLQMDSLIPEAIAVYYCAAPGSTTYDLEYWGQGTQVTVSS	polyreactivity (PSR sort gate)	high polyreactivity
QVQLVESGGGLVQAGGSLRLSCADSGSTFTSNAMRWYRQAPGKEREFVAAINWGGSITYYADSVKGRFTISRDNAKNTVYLQMNSLKPEDTAVYYCAAETYYDTYYPEGDYWGQGTQVTVSS	polyreactivity (PSR sort gate)	low polyreactivity
QVQLVESGGGLVQAGGSLRLSCAASGSIFSVNTMGGYRQAPGKERELVADISSGDSTYYADSVKGRFTISRDNAKNTVYLQMNSLKPEDTAVYFCNADVYSWVSGKEGDYWGQGTQVTVSS	polyreactivity (PSR sort gate)	low polyreactivity
QVQLVESGGGLVQAGGSLRLSCAASGSTFSRNAMGWYRQAPGKERELVAGITTSGGRTYYADSVKGRFTISRDNAKNTVYLQMNSLKPEDTAVYYCANSGYRYFYGRPRFDYWGQGTQVTVSS	polyreactivity (PSR sort gate)	high polyreactivity

* * *

assay: yeast display, Sf9 membrane polyspecificity reagent, FACS + sequencing; frameworks hold sequencing errors

SEQ_TEXT	polyreactivity (PSR sort gate)
QLQLVESGGGLVQAGGSLRLSCAASGSIFSRYAMGWYIQAPGKEMELVAGITRGGSTNYADSVKGRFTLSRDNAKNTVYLHMNSLKPEDTAVYYCAKASRRFLTLGYDYWGQGTQVTVSS	high polyreactivity
QVPLVESGGGLVQAGGSLRIRCAASGSIFAGNALGWYRQAPGKEWELVAAIARRGGSTYYADSVKGRFTISRDNAKNTVYLQMNSLKPEDTAVYYCNDLLRYAYHAAFGYWGQATQVTVSS	high polyreactivity
QVQIVESGGGLVQAGGSLRLSCAASGFTFGVYAMGWYRQAPGKERELVAAISVSGGRTYYADSVKGRFTISRDNAKNTVYLQMNSLKPEDTAVYYCAADLGLKTSSRRTSMYYWGQGTQVTVSS	high polyreactivity
QVNLVESGGGLVQAGCSLRITCADSGRTFKHNAMGWYRQAPGKERQLVAAISRRGGSTYFADSVKGRFTISRDNAKNTVYLQMNRLKPDDTAVYYCNAGYSTFLQYYGEVWKKGCYWGQGTQVTVSS	high polyreactivity
QVQLVESGGGLVQAGGSLRLSCAASGRTFAYYAMGWYRQAPGKERELVAAISSGGGSTYYADSVKGRFTISRDNAKNTVYLQMNRLKPEDTSVYYCNKGFEFWGQGTQVTVSS	high polyreactivity
QVQLVESGGGLVQAGGSLRLSCAASGRTIYLNAMGWYRQAPGKERELVAAISRNGGSTYYADSVKGRFTISRDNAKNTVYLQMNSLKPEDTAVYYCAAEWDDGRSWYWYYLVGFEYWGQGTQVTVSS	high polyreactivity
QVQLVESGGGLVQAGGSLRLSCAASGITFPGNAMGWYIQAPGKERELVAVISSGTSTNYADSVKGRFTISRDNAMNTVYLQMNSLKPEDTAVYYCATSLYYYPYYYWGQGTQVTVSS	low polyreactivity
QVQLVESGGGLVQAGGSLRLSSAASGRTLFDNAMGWYRQAPGKEREWVAAIRSDGNTNYADSVKGRFTISRDNAKNTVYLQMNSLKPEDTAVYYCNARSYVGSSRDNYWGQGTQVTVSS	low polyreactivity
QVQLVESGGGLVQAGGSLRLSCAASGRTFHGYGMGWYRQAPGKERELVAAISWSGGSTYYADSVKGRFTISRDNAKNTVYLHMNSLKAEDTAVYYCAADVYRYWISEYDDYWGQGTQVTVSS	low polyreactivity
QVQLVESGGGLVQAGGSLRLSCAASGFTFISNAMGWYRQAPGKERELVAAISSSGGRTYYADSVKGRFTSSRDNAKNTVYLQMNSLKPEDTAVYYCNADRSLLYSRKIEYDYWGQGTQVSVSS	low polyreactivity
QVQLVESAGGLVQAGGRLSLICAASGYTFYYHAMGWYRQAPGKERELVASIRSRGRSTYYADSVKGRFTISRDNAKNTVYLQMNSLKPEDTAVYYCAALPNKPAVYAYDYWGQGTQVTVSS	low polyreactivity
QVQLVESGGGLVQAGGSLRLSCAASGRIIYSNGMGWYRQAPGKERELVAAISSGGSTYNADSVKGRFTISRDNAKNTVYLQMNSLKPEDTAVYYCAADIDYERDRYDYWGQGSQVTVSS	low polyreactivity
QVQLVESGGGLVQAGGSLRLSCAASGSTFYSYAMGWYRQAPGKERELVAAISSSGGRTRYADSVKGRFTISRDNAKNTVYLQMNSLKPEDTAVYYCAARNRVRVGTRIGRIDEDYWGQGTQVTVSS	high polyreactivity
QVQLVESGGGLVQAGGSLRLRCAASGFTFRLYAMGGDRQAPGKERELVATITQRGGRTYYADSVKGRFTISRDNAKNTVYLQMNSLKPEDTAVYYCAATWSLTTGTKFDYWGQGTQVTVSS	high polyreactivity
QVQLVESGGGLVQAGGSLRLSCAASGRTFDIYAMGWYRQAPGKERELVAAINRSAGDTYYADSVKGGFTISRDNAKNTVYLQMNSLKPEDTAVYYCNAERVPYVPWLLYTEYVNYVYWGQGTQLTVSS	high polyreactivity
QVQLVESGGGLVQAGGSLRLSCAASGSILYGYAMGWYRQAPGKERELYASITSDGSSNYADSVKGRFTISRDNAKNTVYFQMNSLKPEDTAVYYCAADVRLIWSASLTTSKYDYWGQGTQVTVSS	low polyreactivity
QVQLVESGGGLVQAGGSLRLSCAASGSTFRGNDMGWYRQAPGKERELVASIDWSGGSTYYADSVKGRFTISRDNAKNTVYLQMNSLKPEDTAVYYCAADTSYWYDYYIDYVGYYYWGQGTQVTVSS	high polyreactivity
QVQLVESGGGLVQAGGSLRLSCADSGLTFWAYAMGWYRQAPGKARELVAGISSGVSTYYADSVKGRFTISRDNAKNTFYLQMNSLKPEDTEVYYCAAYVYTWYYYDVGYWGQGTQVTVSS	high polyreactivity
QVQLEESGGGLVQEGGSLRISCAASGRTFLRYVMGWYRQAPGKERALVAAISSRGGSTYYADSVKGRFTISRDNAKNTVYLQMNSLKPEDTAVYYCAARFKVRDYPDGNYEYWGQGTQVTVSS	high polyreactivity
QVQLVESGGGLVQAGGRLRLTCAASGITFTGNAMGWYRQAPGKERELVAVITSGGSTYYADSVKGRFTISRDNAKNTVYLQMNSLKPEDTAVYYCAAPVYYYYSKAMDYWGQGTQVTVSS	high polyreactivity
QVQLVESGGGLVQAGGSLRLSCAASGSTFEYNAMGWYRQAPGKERELLADISYSDGSTYYADSVKGRFTISRDNAMNTVYLQMNSLKPEDTGVYYCAAYSGYGGVSMYYWGQGTHVTVSS	low polyreactivity
